- study_system: EPHB2 (UniProt P29323)
- Sequence (P29323 whole entry, looked up): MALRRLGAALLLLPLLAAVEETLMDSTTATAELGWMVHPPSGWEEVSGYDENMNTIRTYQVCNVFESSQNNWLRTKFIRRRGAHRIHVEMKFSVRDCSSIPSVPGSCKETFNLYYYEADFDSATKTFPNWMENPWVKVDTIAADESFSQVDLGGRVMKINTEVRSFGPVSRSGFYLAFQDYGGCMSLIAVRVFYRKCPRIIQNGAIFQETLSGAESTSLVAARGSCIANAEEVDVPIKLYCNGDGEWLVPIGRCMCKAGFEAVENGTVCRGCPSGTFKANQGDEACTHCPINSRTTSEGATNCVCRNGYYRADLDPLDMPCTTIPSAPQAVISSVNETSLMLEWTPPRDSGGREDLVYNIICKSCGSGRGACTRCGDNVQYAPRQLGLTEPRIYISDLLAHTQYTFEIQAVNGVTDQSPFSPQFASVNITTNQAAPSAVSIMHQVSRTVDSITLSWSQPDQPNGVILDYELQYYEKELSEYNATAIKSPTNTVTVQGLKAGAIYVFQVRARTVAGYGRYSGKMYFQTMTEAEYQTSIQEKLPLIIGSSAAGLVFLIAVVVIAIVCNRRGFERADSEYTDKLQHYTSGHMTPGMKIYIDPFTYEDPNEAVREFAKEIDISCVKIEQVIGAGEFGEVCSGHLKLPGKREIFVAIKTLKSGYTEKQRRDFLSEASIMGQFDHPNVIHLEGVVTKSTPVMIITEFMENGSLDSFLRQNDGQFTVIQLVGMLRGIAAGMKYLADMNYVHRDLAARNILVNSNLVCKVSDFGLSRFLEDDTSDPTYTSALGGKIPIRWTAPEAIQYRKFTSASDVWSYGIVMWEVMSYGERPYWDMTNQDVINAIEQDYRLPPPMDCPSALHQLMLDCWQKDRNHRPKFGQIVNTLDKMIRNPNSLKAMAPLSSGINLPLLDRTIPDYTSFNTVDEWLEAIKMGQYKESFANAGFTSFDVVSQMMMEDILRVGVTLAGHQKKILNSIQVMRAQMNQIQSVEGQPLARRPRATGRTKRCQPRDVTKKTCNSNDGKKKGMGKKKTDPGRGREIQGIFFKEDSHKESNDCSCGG
- experiment_description: phosphorylation enrichment, bacterial display (enrichment ratio); higher = better substrate or ligand; peptides without Tyr show the background
Quick rule: phosphorylation enrichment of at least 0.7 means Fulfilled, below that means Not fulfilled.

// inclusive: phosphorylation enrichment at least 0.7? input: SECCKYKIDNL [OSMR_Y689_P694L] Not fulfilled

// inclusive: phosphorylation enrichment at least 0.7? input: SGTFQYIIAKF [FOXL2_Y83_I80T_YF] Not fulfilled

// inclusive: phosphorylation enrichment at least 0.7? input: DEEFEYMNRRR [ERBB3_Y1199_YF] Not fulfilled

// inclusive: phosphorylation enrichment at least 0.7? input: AHAGEYGVEAL [HBA1_Y25_A27V] Not fulfilled

// inclusive: phosphorylation enrichment at least 0.7? input: RAFRHYLLKQK [SCN2A_Y1919_R1918H_YF] Fulfilled

----------
Each entry below carries its reported phosphorylation enrichment.
- study_system: Hck (UniProt P08631)
- Sequence (P08631 whole entry, looked up): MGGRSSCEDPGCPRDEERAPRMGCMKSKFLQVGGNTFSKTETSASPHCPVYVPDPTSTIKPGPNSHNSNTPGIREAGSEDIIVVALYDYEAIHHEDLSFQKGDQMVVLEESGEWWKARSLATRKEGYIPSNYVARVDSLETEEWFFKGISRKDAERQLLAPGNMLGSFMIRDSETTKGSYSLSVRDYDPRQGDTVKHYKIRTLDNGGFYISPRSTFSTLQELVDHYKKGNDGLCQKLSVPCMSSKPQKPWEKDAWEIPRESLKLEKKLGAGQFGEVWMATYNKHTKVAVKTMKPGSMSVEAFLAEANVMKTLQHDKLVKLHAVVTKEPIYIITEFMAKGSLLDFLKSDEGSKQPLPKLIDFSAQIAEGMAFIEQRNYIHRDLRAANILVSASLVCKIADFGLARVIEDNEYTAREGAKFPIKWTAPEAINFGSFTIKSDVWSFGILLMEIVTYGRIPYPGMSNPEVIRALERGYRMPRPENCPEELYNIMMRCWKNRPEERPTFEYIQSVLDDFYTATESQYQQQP
- experiment_description: phosphorylation enrichment, bacterial display (enrichment ratio); higher = better substrate or ligand; peptides without Tyr show the background

Before answering, review these 6 worked examples.
> print(dat)
                   sequence.record        experimental.readout  result
1   VASMFYTLVIP [OR8K3_Y277_I275M]  phosphorylation enrichment   0.667
2      NELTYYCYKKD [CD59_Y87_C89Y]  phosphorylation enrichment    4.17
3  FFRKFCNKSED [RYR1_Y4864_Y4864C]  phosphorylation enrichment   0.603
4  EQMLEYMGQLQ [CFAP45_Y289_E291G]  phosphorylation enrichment   0.507
5           SRDTRYLVLAV [AMH_Y195]  phosphorylation enrichment   0.476
6      GGQVFYNSEFG [FLT4_Y1333_YF]  phosphorylation enrichment   0.532

Return reported phosphorylation enrichment; argument: MEFAKYGSLRG [RET_Y809_V804M_YF] 0.49

----------
- study_system: SHP2-C SH2;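 note: peptide library displayed on the E. coli surface as eCPX fusions, selected cells deep-sequenced, score is each peptide's frequency after selection divided by its frequency in the input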
- experiment_description: SH2 binding enrichment of the phosphorylated peptide, bacterial display (enrichment ratio); higher = better substrate or ligand; peptides without Tyr show the background
experimental_readout: SH2 binding enrichment
Provide a numeric answer; units are not to be included.

Before answering, review these 6 worked examples.
> print(dat)
                      sequence.record  study.system    experimental.readout  number
1        SHSMRYFFTAV [HLA-C_Y31_D33F]    SHP2-C SH2  SH2 binding enrichment    1.33
2      VDTGVYAVPPP [BCAR1_Y410_S407T]    SHP2-C SH2  SH2 binding enrichment   0.602
3           KCCCIYEKPRA [PPP1R11_Y64]    SHP2-C SH2  SH2 binding enrichment   0.705
4             QLATEYVFSDF [PANX1_Y10]    SHP2-C SH2  SH2 binding enrichment   0.679
5       DYTEAYNSKIK [CLK1_Y305_P307S]    SHP2-C SH2  SH2 binding enrichment   0.582
6  MSSHHCDFKKF [ZNF445_Y428_Y428C_YF]    SHP2-C SH2  SH2 binding enrichment   0.759

Return reported SH2 binding enrichment; argument: FFHCTYKQRMI [CLEC12A_Y242_K244Q_YF] 1.07

Return reported SH2 binding enrichment; argument: GITTGYLVLKE [DNMT3B_Y588_A585T] 2.06

Return reported SH2 binding enrichment; argument: EEKSCYILHSS [PATJ_Y783_E780K] 0.893

Return reported SH2 binding enrichment; argument: DLLMQYPKAQG [FAM83C_Y600] 0.763

Return reported SH2 binding enrichment; argument: IVFVICDEVVK [SLC25A1_Y297_Y297C] 1.03

All values here come from the supplement of paper PMC10065799.
